- EXPERIMENTAL_DETAILS: In vitro cytotoxicity assay, CCK-8 method
- Assay type: cell-based
- TEST_PARAMETERS: human, HepG2 cells
QUANTITY: CC50 at 48 h

COC(=O)N1CCO[C@@H](Cc2c(-c3c(F)cc(-c4ncc[nH]4)cc3F)nc3cc(C)ccn23)C1: 195 µM
CC(=O)N1CCO[C@@H](Cc2c(-c3c(F)cc(-c4ncco4)cc3F)nc3cc(Cl)ccn23)C1: > 100 µM
COC(=O)N1CCO[C@@H](Cc2c(-c3c(F)cc(N4C(=O)CCC4=O)cc3F)nc3cc(C)ccn23)C1: > 100 µM

Prompt: Provide only the value of recorded CC50 at 48 h for "COC(=O)N1CCO[C@@H](Cc2c(-c3ccc(S(N)(=O)=O)cc3Cl)nc3cc(C)ccn23)C1"
Completion: > 200 µM

Prompt: Provide only the value of recorded CC50 at 48 h for "CC(=O)N1CCO[C@@H](Cc2c(-c3c(F)cc(S(N)(=O)=O)cc3F)nc3cc(C)ccn23)C1"
Completion: > 200 µM

Prompt: Provide only the value of recorded CC50 at 48 h for "COC(=O)N1CCO[C@@H](Cc2c(-c3c(F)cc(-c4ccco4)cc3F)nc3cc(C)ccn23)C1"
Completion: 79.4 µM

Prompt: Provide only the value of recorded CC50 at 48 h for "CC(=O)Nc1cc(F)c(-c2nc3cc(C)ccn3c2C[C@H]2CN(C(C)=O)CCO2)c(F)c1"
Completion: > 100 µM
